Recorded values, source patent US20250340510A1.

Reported pEC50 values for a set of molecules
Target: TRPML1 (Homo sapiens, UniProt Q9GZU1)
Sequence (Q9GZU1 17-572 limits assumed): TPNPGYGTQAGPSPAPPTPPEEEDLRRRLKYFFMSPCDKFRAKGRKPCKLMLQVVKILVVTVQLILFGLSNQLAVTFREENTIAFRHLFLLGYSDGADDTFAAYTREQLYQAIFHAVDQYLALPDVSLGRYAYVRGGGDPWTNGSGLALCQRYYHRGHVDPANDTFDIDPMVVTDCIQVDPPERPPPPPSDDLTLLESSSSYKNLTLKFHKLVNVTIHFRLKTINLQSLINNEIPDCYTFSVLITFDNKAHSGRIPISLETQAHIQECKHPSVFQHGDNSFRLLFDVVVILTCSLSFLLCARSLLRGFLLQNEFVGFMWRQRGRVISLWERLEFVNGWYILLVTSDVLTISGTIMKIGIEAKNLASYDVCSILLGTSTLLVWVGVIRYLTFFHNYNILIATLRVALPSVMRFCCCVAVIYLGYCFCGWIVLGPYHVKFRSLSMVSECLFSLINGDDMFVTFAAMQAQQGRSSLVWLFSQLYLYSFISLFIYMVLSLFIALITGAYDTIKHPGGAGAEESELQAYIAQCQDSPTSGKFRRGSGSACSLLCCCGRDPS
Test: Calcium flux in HEK293 overexpressing TRPML1 plasma membrane variant (FLIPR, Calcium 6 dye)
Conditions: HEK293/TRPML1-PM clone A5 cells; 4-parameter logistic fit; read-out: TRPML1 calcium flux (FLIPR) dose response: EC50
pEC50: −log10 of the molar value.

molecule | reported-relation | pEC50
CN(c1ccccc1)c1ccccc1NS(=O)(=O)c1ccc(S(=O)(=O)N(C)C)cc1 [Compound 27] | < | 5.00
CN(Cc1cncn1C)c1ccccc1NS(=O)(=O)c1ccc(S(=O)(=O)N(C)C)cc1 [Compound 56] | < | 5.00
CN(Cc1cn2c(n1)CCC2)c1ccccc1NS(=O)(=O)c1ccc(S(=O)(=O)N(C)C)cc1 [Compound 83] | < | 4.52
CN(c1cc(C#N)ccc1NS(=O)(=O)c1ccc(S(=O)(=O)N(C)C)cc1)C1CCCCC1 [Compound 88] | = | 5.67
Cc1cnn(C)c1CN(C)c1ccccc1NS(=O)(=O)c1ccc(S(=O)(=O)N(C)C)cc1 [Compound 80] | = | 5.23
CN(Cc1cccnc1)c1ccccc1NS(=O)(=O)c1ccc(S(=O)(=O)N(C)C)cc1 [Compound 57] | = | 5.34
